This collection of values is drawn from patent US20120225060A1.

- target of assay: T1, recombinant human IL-6R-extracellular domain (ECD) (human, UniProt P08887 20-365)
- T1 construct: extracellular domain; also called IL-6R-ECD
- T1 sequence (looked up): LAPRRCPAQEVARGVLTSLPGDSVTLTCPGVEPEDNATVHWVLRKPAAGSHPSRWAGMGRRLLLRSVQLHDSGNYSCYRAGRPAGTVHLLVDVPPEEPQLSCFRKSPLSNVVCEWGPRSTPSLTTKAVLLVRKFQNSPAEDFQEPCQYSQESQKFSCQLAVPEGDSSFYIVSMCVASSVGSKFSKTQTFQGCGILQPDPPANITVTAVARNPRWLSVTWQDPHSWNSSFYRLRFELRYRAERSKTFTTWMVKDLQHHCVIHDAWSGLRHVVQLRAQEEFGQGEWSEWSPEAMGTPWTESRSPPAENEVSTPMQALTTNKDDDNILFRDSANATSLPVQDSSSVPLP
- method summary: SPR
readout kind: koff (s⁻¹)

1. humanized clone #36 anti-IL-6R antibody (antibody, human IgG1, kappa, V domains shown, Humanized VH cloned into human IgG1 CH vector, humanized VK into human CK vector; also called Humanized 36; humanized 36) VH: EVQLVESGGGLVQPGGSLRLSCAVSGFSLSSYYMSWVRQAPGKGLEWIGITTTSTNTFYASWAKGRFTISKDSSKNTVYLQMNSPRAEDTAVYFCARYGGNSAYYAFSLWGQGTLVTVSS VL: DIQMTQSPSSLSASVGDRVTISCQSSQSVYNNNYLAWFQQKPGKPPKLLIYGASNLASGVPSRFSGSGSGTQFTLTISSLQPEDVATYYCQGYYNGVIFVFGGGTKVEIKR | 0.00031
2. clone 5 rabbit anti-IL-6R antibody (antibody, V domains shown) VH: QSLEESGGRLVTPGTPLTLTCTVSGIDLSRYWMSWVRQAPGKGLEWIGMISGGNTWYASWAKGRFTISKTSTTVDLKITSPTTEDTATYFCARGIDTGIATTFNLWGPGTLVTVSS VL: AQVLTQTPSSVSAAVGGTVTISCQSSQSVYNNNRLSWFQQKPGQPPKLLIYYASTLASGVPSRFKGSGSGTQFTLTISDLECDDAATYYCQGYYSGVINVFGGGTEVVVK | 0.000279
3. clone 51 rabbit anti-IL-6R antibody (antibody, V domains shown) VH: QSVEESGGRLVTPGTPLTLTCTASGFDISSYSLQWVRQSPGKGLEYIGFIRPDGSAHYATWAKGRFTISKTSSTTVDLKMTSLTTEDTATYFCARDDISSDYFPNLWGPGTLVTVSS VL: QVLTQTPSPVSAAVGGTVTISCQASESVYNKNNLAWYQQKPGQPPKLLIYDASDLASGVSSRFKGSGSGTQFTLTISDLECADAATYYCAGGGSGNVYDFGGGTEVVVK | 0.000463
4. humanized clone #51 anti-IL-6R antibody (antibody, human IgG1, kappa, V domains shown, Humanized VH cloned into human IgG1 CH vector, humanized VK into human CK vector; also called Humanized 51; humanized 51) VH: EVQLVESGGGLVQPGGSLRLSCAASGFDISSYSLQWVRQSPGKGLEYIGFIRPDGSAHYATWAKGRFTISKDSSKNTVYLQMNSLRAEDTAVYFCARDDISSDYFPNLWGPGTLVTVSS VL: DIQMTQSPSTLSASVGDRVTISCQASESVYNKNNLAWYQQKPGKPPKLLIYDASDLASGVPSRFSGSGSGTQFTLTISSLQPDDFATYYCAGGGSGNVYDFGGGTKVEIKR | 0.0004
